Would you kindly list rescue above control for each of these compounds?
protocolNotes: restoration of touch response, mutant HTT neurons – whole organism, C. elegans mechanosensory neurons, N-terminal huntingtin (AID 1599)
setupConditions: C. elegans polyQ-huntingtin mechanosensory neurons, stronger effect = higher value
Results with a measured potency or affinity are listed apart.
// return a plain number; no unit text

Data point: CC(=O)OCC(=O)[C@@]1(O)CC[C@H]2C3CCC4=CC(=O)CCC4(C)[C@@]3(F)[C@@H](O)CC21C (stereo not given in full) ; rescue above control = 20.3

Briefly, rescue above control measured for NC[C@H]1O[C@H](O[C@H]2[C@H](O)[C@@H](O[C@H]3O[C@H](CO)[C@@H](O)[C@H](N)[C@H]3O)[C@H](N)C[C@@H]2N)[C@H](O)[C@@H](O)[C@@H]1O : -8.71

compound CCC(=O)O[C@@H](O[P@](=O)(CCCCc1ccccc1)CC(=O)N1C[C@H](C2CCCCC2)C[C@H]1C(=O)O)C(C)C , rescue above control observed: 2.83

Lab note: measured rescue above control of CN1C2CC[C@H]1CC(OC(=O)C(O)c1ccccc1)C2 (stereo not given in full) was -4.02

Value of rescue above control reported for the compound NC[C@@H]1O[C@H](O[C@H]2[C@@H](O)[C@H](O[C@@H]3[C@@H](O)[C@H](N)C[C@H](N)[C@H]3O[C@@H]3O[C@H](CO)[C@@H](O)C[C@H]3N)O[C@@H]2CO)[C@H](N)[C@@H](O)[C@@H]1O[C@H]1O[C@H](CO)[C@@H](O)[C@H](O)[C@@H]1O is 7.71

The value of rescue above control measured for the compound CC1CC2C3CCC4=CC(=O)C=CC4(C)[C@@]3(F)C(O)CC2(C)[C@@]1(O)C(=O)CO (stereo not given in full) turned out to be 8.02

rescue above control reading for OCc1cc2c(cn1)[nH]c1ccccc12 : 10.8

Lab note: COC(=O)/C(=C1\OC(=O)C(c2ccccc2)C1=O)c1ccccc1 (stereo not given) gave rescue above control of 9.72

Please fill in: rescue above control reported for CC1(C)S[C@@H]2[C@H](NC(=O)[C@H](NC(=O)N3CCNC3=O)c3ccccc3)C(=O)N2C1C(=O)O (stereo not given in full) = -2.48

Form field rescue above control, entry CN[C@@H]1[C@H](O)[C@H](NC)[C@H]2O[C@@]3(O)C(=O)C[C@@H](C)O[C@H]3OC2[C@H]1O (stereo not given in full) : -5.98

###

protocolNotes: BT084 cell growth, single and combined drugs, ICGC_MB145, cisplatin and BGB IC40 combos (AID 1671461);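 further: cells exposed to drugs for 96 hours; 0% = vehicle DMSO and 100% = high DMSO full killing control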
setupConditions: BT084 medulloblastoma cells, drug combinations, measured here: BGB IC40 combination 0.05 uM, at 0.05 µM, stronger effect = higher value
Non-standard residues stand in square brackets, D forms with d. Residues, ends and D or L forms follow the SMILES beside them. Dolaproine = CO[C@@H]([C@@H]1CCCN1)[C@@H](C)C(=O)O; Dil = CC[C@H](C)[C@H](NC)[C@@H](CC(=O)O)OC; NMeV = CN[C@H](C(=O)O)C(C)C
propertyName: inhibition (%)
Kindly answer with a numeric value in %, unit omitted.

// field: inhibition; key: CN(C)C(=S)NN=C(c1ccccn1)c1ccccn1 ; value = 80.3

The reported value for C=C1CCC(O)CC1=CC=C1CCCC2(C)C1CCC2C(C)C=CC(C)C(C)C (configuration not stated) in terms of inhibition is 22.6

Short answer for CC1CN(c2c(F)c(N)c3c(=O)c(C(=O)O)cn(C4CC4)c3c2F)CC(C)N1 (configuration not stated) : inhibition was 2.3

Record Nc1ncn(C2OC(CO)C(O)C2O)c(=O)n1 (configuration not stated) . Reported inhibition: 30.7

Input C=C(NC(=O)C(=C)NC(=O)c1csc(C2=NC3c4csc(n4)C4NC(=O)c5csc(n5)C(C(C)(O)C(C)O)NC(=O)C5CSC(=N5)/C(=C/C)NC(=O)C(C(C)O)NC(=O)c5csc(n5)C3(CC2)NC(=O)C(C)NC(=O)C(=C)NC(=O)C(C)NC(=O)C(C(C)CC)NC2C=Cc3c(C(C)O)cc(nc3C2O)C(=O)OC4C)n1)C(N)=O (configuration not stated) . Output inhibition: -3.57

Quick note, inhibition for CC(=O)C1(O)Cc2c(O)c3c(c(O)c2C(OC2CC(N)C(O)C(C)O2)C1)C(=O)c1ccccc1C3=O (configuration not stated) landed at -4.42

Value of inhibition reported for the compound Cn1cnc2[nH]c(=O)[nH]c(=O)c21 is -20.6

The value of inhibition measured for the compound NC(=S)NN=Cc1ncccc1N turned out to be -31.2

Lab note: measured inhibition of Cc1cn(C2C=CC(CO)O2)c(=O)[nH]c1=O (configuration not stated) was -19.6

// Cc1c(Br)cc(NCC(=O)N/N=C/c2cc([N+](=O)[O-])ccc2O)cc1Br : inhibition value = -3.3

# inhibition of Cc1cc(C#N)cc(C)c1Oc1nc(Nc2ccc(C#N)cc2)nc(N)c1Br = 7.73

So for CC(Oc1cc(-c2cnn(C3CCNCC3)c2)cnc1N)c1c(Cl)ccc(F)c1Cl (configuration not stated) , the logged inhibition turned out to be -35.9

The reported inhibition of the compound COc1ccccc1S(=O)(=O)Nc1ccc2c(c1)CN(C)C(=O)N2 was -35.9

Record O=c1[nH]c(=S)[nH]c2nc(-c3ccccc3)c(-c3ccccc3)nc12 . Reported inhibition: -24.1

Form: compound = N#Cc1ccc(OC2CCC(NC(=O)CCSc3nc4ccccc4c(=O)[nH]3)CC2)cc1 (configuration not stated) ; inhibition = -41.1

// field: inhibition; key: Nc1ccn(C2CCC(CO)O2)c(=O)n1 (configuration not stated) ; value = 24

Value of measured inhibition for the entry CCC(C)C(=O)OC1CC(C)C=C2C=CC(C)C(CCC3CC(O)CC(=O)O3)C21 (configuration not stated) : 4.47

Given item CC1CNC(=O)NC1=O (configuration not stated) , the value recorded as its inhibition is -27

Record summary for C=C1C(=O)O[C@@H]2C=C(C)CCC=C(C)CC[C@@H]12 : reported inhibition = -2.12

Noted for CCC1(O)C(=O)OCc2c1cc1n(c2=O)Cc2cc3cc(O)ccc3nc2-1 (configuration not stated) : its inhibition reads -44.1

Summary for this compound, O=c1ccn(C2CC(O)C(CO)O2)c(=O)[nH]1 (configuration not stated) : inhibition is 26.6

Documented inhibition of CC[C@H](C)[C@@H]([C@@H](CC(=O)N1CCC[C@H]1[C@H](OC)[C@@H](C)C(=O)N[C@@H](Cc1ccccc1)C(=O)O)OC)N(C)C(=O)[C@@H](NC(=O)[C@@H](NC)C(C)C)C(C)C (H-[NMeV]V[Dil][Dolaproine]F-OH) : -19.9

Entry O=C1C(=Cc2cccnc2)C(=O)c2ccccc21 ; inhibition = -30.3

Sure, the documented inhibition for O=C(CCCCCCC(=O)Nc1ccc(I)cc1)NO is -26.1

Entry Nc1ccccc1NC(=O)c1cnccn1 — recorded inhibition = -29.6

# inhibition (compound: COc1cccc2c1C(=O)c1c(O)c3c(c(O)c1C2=O)CC(O)(C(=O)CO)CC3OC1CC(N)C(OC2CCCCO2)C(C)O1 (configuration not stated) ) is -28.8

Reported inhibition ( Cn1cc(-c2cnn3c(N)c(Br)c([C@H]4CCCNC4)nc23)cn1 ) = 5.34

Entry under test: Cc1cc(C=CC#N)cc(C)c1Nc1ccnc(Nc2ccc(C#N)cc2)n1 . Its inhibition was -11.4

Per the records, this compound ( O=c1cc(-c2ccc(O)cc2)[nH]c(=S)[nH]1 ) has inhibition equal to 27.5

For C[C@@H]1O[C@@H](O[C@@H]2[C@@H](O)[C@H](OCCc3ccc(O)c(O)c3)O[C@H](CO)[C@H]2OC(=O)C=Cc2ccc(O)c(O)c2)[C@H](O)[C@H](O)[C@H]1O the compound record lists inhibition as -26.5

Per the records, this compound ( O=c1[nH]cnc2c1ncn2C1CCC(CO)O1 (configuration not stated) ) has inhibition equal to 1

Per the records, this compound ( O=C(CCSc1nc2ccccc2c(=O)[nH]1)NC1CCC(c2nnc(-c3ccccc3)o2)CC1 (configuration not stated) ) has inhibition equal to -56.9

Kindly note the recorded inhibition for O=C1N=c2ccccc2=C1c1c(O)[nH]c2ccccc12 , which is 21.5

Recorded inhibition (compound O=C(CCCCCCC(=O)NO)NO ): -15.2

inhibition measured on Cc1cn(C2CC(O)C(COP(=O)(O)OP(=O)(O)OP(=O)(O)O)O2)c(=O)[nH]c1=O (configuration not stated) = 23.2

inhibition recorded for this compound, Cc1cc(C)c(Nc2ccnc(Nc3ccc(C#N)cc3)n2)c(C)c1 , is -32.7

Per the record, C[C@H](NC(=O)c1ccccc1N=Cc1c(O)ccc2ccccc12)c1ccccc1 has inhibition of 5.69
